# measured-on: PI3Kγ (Homo sapiens (Human), UniProt P48736)
# Sequence (P48736 whole entry, canonical isoform): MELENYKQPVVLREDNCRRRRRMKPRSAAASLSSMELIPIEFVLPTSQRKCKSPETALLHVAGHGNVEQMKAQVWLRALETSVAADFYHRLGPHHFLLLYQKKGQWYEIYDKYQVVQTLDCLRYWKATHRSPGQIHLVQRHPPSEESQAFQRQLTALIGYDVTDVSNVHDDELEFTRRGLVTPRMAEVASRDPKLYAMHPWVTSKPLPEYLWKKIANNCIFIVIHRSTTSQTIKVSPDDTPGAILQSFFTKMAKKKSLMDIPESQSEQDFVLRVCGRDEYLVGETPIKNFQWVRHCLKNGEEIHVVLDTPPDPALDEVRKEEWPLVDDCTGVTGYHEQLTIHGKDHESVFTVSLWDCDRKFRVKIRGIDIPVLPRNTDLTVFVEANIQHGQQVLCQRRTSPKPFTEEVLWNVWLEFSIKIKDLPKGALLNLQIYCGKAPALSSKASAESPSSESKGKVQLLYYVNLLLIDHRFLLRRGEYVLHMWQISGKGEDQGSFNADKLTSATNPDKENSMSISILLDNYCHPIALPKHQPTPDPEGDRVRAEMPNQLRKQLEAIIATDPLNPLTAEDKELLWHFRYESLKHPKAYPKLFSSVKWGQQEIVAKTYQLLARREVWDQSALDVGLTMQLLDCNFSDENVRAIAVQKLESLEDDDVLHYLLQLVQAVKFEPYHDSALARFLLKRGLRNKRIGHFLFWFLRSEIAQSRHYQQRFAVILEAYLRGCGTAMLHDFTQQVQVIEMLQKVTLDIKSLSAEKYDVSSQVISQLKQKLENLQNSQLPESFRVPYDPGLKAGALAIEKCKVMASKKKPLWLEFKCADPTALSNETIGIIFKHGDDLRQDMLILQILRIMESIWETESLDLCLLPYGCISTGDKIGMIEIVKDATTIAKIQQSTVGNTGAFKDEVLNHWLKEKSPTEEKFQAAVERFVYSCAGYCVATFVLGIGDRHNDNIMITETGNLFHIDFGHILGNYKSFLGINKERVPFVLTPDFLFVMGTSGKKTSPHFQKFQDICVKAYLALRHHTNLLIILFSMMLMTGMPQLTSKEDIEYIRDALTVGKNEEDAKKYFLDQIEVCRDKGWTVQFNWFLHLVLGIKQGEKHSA
# Sequence (Q8WYR1 whole entry partner, canonical isoform): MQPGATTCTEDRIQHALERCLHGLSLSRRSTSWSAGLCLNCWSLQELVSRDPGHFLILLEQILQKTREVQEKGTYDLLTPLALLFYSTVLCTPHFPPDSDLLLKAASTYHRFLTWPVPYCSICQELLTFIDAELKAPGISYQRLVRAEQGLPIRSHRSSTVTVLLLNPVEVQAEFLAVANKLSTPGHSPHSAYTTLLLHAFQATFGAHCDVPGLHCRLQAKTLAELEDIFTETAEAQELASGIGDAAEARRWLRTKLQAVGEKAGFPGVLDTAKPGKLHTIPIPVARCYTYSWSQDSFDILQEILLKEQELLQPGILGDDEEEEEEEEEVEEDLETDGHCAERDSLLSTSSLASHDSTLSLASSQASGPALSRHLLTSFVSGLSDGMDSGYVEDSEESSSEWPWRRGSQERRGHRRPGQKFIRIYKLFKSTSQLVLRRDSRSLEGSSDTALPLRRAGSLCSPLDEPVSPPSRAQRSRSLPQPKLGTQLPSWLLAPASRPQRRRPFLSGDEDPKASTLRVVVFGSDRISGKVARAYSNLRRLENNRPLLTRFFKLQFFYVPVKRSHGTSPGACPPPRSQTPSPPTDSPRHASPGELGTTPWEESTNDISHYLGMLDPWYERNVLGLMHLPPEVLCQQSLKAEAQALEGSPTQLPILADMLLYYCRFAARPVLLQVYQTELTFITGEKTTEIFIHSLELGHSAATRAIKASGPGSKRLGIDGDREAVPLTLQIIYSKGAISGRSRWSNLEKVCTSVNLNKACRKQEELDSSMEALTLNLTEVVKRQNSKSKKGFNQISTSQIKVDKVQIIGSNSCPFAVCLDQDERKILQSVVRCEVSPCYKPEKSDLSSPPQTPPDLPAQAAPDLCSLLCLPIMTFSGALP
# experimental-details: TR-FRET enzymatic assay of PI3K isoforms (PI3Kγ)
# Type: biochemical
# conditions-used: TR-FRET, 2×Km ATP, 2 μM PIP2, PI3Kγ at 2 nM, incubated for 30 minutes at 25° C.; read-out: γ IC50
reported-endpoint: IC50 (nM)

Take a look at these entries with their results.
C[C@H](Nc1ncnc(N)c1C#N)c1nc2cccc(Cl)c2c(=O)n1-c1cccc(NC(=O)Nc2ccccc2OCCO)c1; 1500
C[C@H](Nc1ncnc2scnc12)c1nc2cccc(Cl)c2c(=O)n1-c1cccc(NC(=O)NS(=O)(=O)C2CCCC2)c1; 250
CC[C@H](Nc1nc(N)nc(N)c1C#N)c1nc2cccc(C(F)F)c2c(=O)n1-c1cccc(C(N)=O)c1; 380

a = N#Cc1c(N)nc(N)nc1N[C@H](c1nc2cccc(Cl)c2c(=O)n1-c1cccc(C(N)=O)c1)C1CC1
b = Cc1nc(N)nc(N[C@H](c2nc3c(Cl)ccc(Cl)c3c(=O)n2-c2cccc(C(N)=O)c2)C2CC2)c1C#N
c = C[C@H](Nc1ncnc(N)c1C#N)c1nc2cccc(Cl)c2c(=O)n1-c1cccc(NC(=O)NCCC(=O)O)c1
Enquiry: hey, can you rank those compounds up there by IC50? biggest number first please The reply should contain the labels ordered as requested.
Return: c, b, a
(c: 7600 nM, b: 510 nM, a: 220 nM)

---

# measured-on: PI3Kβ (Homo sapiens (Human))
# Sequence (P42338 whole entry, canonical isoform): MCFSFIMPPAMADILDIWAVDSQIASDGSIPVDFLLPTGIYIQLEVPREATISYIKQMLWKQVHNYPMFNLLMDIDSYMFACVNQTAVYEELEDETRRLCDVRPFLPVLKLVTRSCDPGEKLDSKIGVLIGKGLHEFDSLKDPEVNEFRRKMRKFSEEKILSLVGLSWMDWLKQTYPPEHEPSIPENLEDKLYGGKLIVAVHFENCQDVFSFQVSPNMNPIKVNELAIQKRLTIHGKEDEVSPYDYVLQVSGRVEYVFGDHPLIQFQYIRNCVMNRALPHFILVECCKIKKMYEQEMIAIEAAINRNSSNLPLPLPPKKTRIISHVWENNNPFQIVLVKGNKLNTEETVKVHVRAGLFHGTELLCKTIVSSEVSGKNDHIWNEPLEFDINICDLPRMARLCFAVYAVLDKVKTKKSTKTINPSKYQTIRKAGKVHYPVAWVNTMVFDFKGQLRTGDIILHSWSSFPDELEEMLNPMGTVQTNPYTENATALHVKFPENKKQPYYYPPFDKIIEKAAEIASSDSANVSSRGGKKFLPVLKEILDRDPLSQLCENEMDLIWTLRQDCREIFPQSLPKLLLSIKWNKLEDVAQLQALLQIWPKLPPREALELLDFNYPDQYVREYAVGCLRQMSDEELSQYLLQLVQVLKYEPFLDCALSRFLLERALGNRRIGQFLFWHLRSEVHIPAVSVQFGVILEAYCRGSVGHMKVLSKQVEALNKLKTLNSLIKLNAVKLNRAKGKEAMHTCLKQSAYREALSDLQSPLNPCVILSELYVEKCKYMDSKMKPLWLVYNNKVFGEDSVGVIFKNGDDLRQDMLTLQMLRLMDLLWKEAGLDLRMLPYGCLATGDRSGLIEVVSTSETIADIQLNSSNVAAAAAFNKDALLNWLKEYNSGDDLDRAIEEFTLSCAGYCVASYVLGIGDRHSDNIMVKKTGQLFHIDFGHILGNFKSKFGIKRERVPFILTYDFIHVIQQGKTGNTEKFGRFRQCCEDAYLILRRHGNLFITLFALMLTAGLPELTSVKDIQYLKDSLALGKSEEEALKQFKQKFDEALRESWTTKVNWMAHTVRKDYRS
# Sequence (P27986 whole entry partner, canonical isoform): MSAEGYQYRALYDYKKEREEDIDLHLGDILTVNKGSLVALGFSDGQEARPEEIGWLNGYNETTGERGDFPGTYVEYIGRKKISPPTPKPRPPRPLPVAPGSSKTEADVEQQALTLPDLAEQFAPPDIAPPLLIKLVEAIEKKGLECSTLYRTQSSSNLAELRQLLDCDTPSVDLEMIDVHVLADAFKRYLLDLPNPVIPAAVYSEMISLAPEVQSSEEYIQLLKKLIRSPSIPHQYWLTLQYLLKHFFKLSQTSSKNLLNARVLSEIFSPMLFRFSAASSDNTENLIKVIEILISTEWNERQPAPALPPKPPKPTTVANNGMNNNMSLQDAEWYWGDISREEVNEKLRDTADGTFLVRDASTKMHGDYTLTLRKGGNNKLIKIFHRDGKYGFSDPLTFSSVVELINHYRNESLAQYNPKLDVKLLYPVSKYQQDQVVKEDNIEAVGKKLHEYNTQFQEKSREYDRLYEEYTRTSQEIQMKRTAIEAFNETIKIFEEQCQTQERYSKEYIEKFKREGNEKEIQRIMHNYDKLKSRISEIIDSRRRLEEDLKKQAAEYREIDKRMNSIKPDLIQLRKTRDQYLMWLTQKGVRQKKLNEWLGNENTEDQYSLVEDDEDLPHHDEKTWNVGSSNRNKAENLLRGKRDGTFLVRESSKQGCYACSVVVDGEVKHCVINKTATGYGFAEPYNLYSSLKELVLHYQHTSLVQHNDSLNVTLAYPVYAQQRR
# experimental-details: TR-FRET enzymatic assay of PI3K isoforms (PI3Kβ)
# conditions-used: TR-FRET, 2×Km ATP, 2 μM PIP2, incubated for 30 minutes at 25° C.; read-out: β IC50
reported-endpoint: IC50 (nM)

Consider the worked cases shown below.
CC[C@H](Nc1nc(N)nc(N)c1C#N)c1nc2cccc(Cl)c2c(=O)n1-c1cccc(C(N)=O)c1; 2
C[C@H](Oc1ncnc2scnc12)c1nc2cccc(Cl)c2c(=O)n1-c1cccc(NC(=O)Nc2cc(C(F)(F)F)no2)c1; 47
C[C@H](Oc1ncnc2scnc12)c1nc2cccc(Cl)c2c(=O)n1-c1cccc(NC(=O)NCC(F)F)c1; 8
C[C@H](Nc1ncnc(N)c1C#N)c1nc2c(F)ccc(Cl)c2c(=O)n1-c1cccc(NC(=O)NCCCO)c1; 4
C[C@H](Nc1ncnc(N)c1C#N)c1nc2c(Cl)cccc2c(=O)n1-c1cccc(NC(=O)NCCCO)c1; 220

A = CCC[C@H](Nc1nc(N)nc(N)c1Cl)c1nc2c(Cl)ccc(Cl)c2c(=O)n1-c1cccc(C(N)=O)c1
B = Cc1nc(N)nc(N[C@H](c2nc3c(F)ccc(Cl)c3c(=O)n2-c2cccc(C(N)=O)c2)C2CC2)c1C#N
C = N#Cc1c(N)nc(N)nc1N[C@H](c1nc2cccc(C(F)F)c2c(=O)n1-c1cccc(C(N)=O)c1)C1CC1
Enquiry: Ordering criterion: IC50; begin with the maximum. As an answer, provide the labels arranged in the order called for.
Return: A, B, C

a = NC(=O)c1cccc(-n2c([C@@H](Nc3nc(N)nc(N)c3Cl)C3CC3)nc3c(Cl)cc(F)cc3c2=O)c1
b = NC(=O)c1cc(F)cc(-n2c([C@@H](Nc3ncnc(N)c3Cl)C3CC3)nc3cccc(Cl)c3c2=O)c1
c = C[C@H](Nc1ncnc(N)c1C#N)c1nc2cccc(F)c2c(=O)n1-c1cccc(NC(=O)Nc2ccccc2C(F)(F)F)c1
Enquiry: Place the items in sequence of falling IC50. I would appreciate it if you listed the labels in the requested order.
Return: b, a, c

I = CC[C@H](Nc1nc(N)nc(N)c1C#N)c1nc2c(Cl)ccc(Cl)c2c(=O)n1-c1cccc(C(N)=O)c1
II = C[C@H](Nc1nc(N)nc(N)c1Cl)c1nc2cccc(Cl)c2c(=O)n1-c1cccc(C(N)=O)c1
Enquiry: Between I and II , which one shows the smaller IC50 number? Returns: label corresponding to the selected item.
Return: I
(I: 8 nM, II: 14 nM)

P = N#Cc1c(N)nc(N)nc1N[C@H](c1nc2c(F)ccc(Cl)c2c(=O)n1-c1cccc(C(N)=O)c1)C1CC1
Q = C=CCc1cccc2nc([C@H](C)Nc3ncnc(N)c3C#N)n(-c3cccc(NC(=O)NCC)c3)c(=O)c12
Enquiry: Which record would sort first by descending IC50, P or Q ? Please indicate the selected item by its label.
Return: Q
(Q: 35 nM, P: 10 nM)

---

# measured-on: PI3Kδ (Homo sapiens (Human))
# Sequence (O00329 whole entry, canonical isoform): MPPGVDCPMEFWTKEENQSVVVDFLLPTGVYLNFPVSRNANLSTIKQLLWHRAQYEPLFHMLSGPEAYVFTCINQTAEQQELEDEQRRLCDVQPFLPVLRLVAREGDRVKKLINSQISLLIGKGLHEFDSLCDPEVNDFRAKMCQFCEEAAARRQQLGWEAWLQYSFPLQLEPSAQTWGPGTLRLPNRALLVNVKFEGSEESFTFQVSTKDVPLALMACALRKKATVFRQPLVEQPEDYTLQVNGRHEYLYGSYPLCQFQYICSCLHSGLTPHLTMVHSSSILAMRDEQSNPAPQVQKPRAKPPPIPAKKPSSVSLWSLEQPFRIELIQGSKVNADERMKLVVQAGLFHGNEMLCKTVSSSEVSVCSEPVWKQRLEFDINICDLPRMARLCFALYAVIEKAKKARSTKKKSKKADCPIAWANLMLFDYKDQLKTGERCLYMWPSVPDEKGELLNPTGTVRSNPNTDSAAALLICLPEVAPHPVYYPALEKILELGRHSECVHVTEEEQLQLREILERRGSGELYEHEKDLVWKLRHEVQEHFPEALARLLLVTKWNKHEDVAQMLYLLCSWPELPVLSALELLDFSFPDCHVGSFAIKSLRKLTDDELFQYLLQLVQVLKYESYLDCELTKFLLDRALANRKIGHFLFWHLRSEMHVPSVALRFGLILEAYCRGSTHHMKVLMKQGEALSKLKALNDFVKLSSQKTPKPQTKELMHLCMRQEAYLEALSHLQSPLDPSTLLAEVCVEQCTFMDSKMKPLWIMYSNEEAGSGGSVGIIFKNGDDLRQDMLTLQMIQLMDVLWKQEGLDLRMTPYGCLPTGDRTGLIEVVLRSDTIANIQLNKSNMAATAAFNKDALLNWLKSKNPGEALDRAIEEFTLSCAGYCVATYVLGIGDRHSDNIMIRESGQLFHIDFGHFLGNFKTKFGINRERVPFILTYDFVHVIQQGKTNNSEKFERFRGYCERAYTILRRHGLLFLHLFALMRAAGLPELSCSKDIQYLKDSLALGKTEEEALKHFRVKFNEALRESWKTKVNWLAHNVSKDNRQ
# Sequence (P27986 whole entry partner, canonical isoform): as the sequence (P27986 whole entry partner, canonical isoform) above
# experimental-details: TR-FRET enzymatic assay of PI3K isoforms (PI3Kδ)
# conditions-used: 2×Km ATP, 2 μM PIP2, incubated for 30 minutes at 25° C., read-out: δ IC50
reported-endpoint: IC50 (nM)

In the examples that follow, each entry is paired with its recorded IC50.
C[C@H](Nc1nc(N)nc(N)c1C#N)c1nc2c(Cl)ccc(Cl)c2c(=O)n1-c1cccc(C(N)=O)c1; 0.8
C[C@H](Nc1ncnc(N)c1C#Cc1cnccn1)c1nc2cccc(Cl)c2c(=O)n1-c1cccc(C(N)=O)c1; 7

P = C[C@H](Nc1ncnc(N)c1C#N)c1nc2cccc(Cl)c2c(=O)n1-c1cccc(NC(=O)Nc2ccccc2OCC(=O)O)c1
Q = CCNC(=O)Nc1cccc(-n2c([C@H](C)Nc3ncnc(N)c3C(=O)O)nc3cccc(Cl)c3c2=O)c1
R = CCNC(=O)Nc1cccc(-n2c([C@H](C)Nc3nc(C)nc(N)n3)nc3cccc(Cl)c3c2=O)c1
Enquiry: # sort list by recorded IC50, greatest to least Labels, requested order.
Return: Q, R, P

---

# measured-on: PI3Kγ (Homo sapiens (Human), UniProt P48736)
# experimental-details: TR-FRET enzymatic assay of PI3K isoforms (PI3Kγ)
# Format: biochemical
# conditions-used: TR-FRET, 2×Km ATP, 2 μM PIP2, PI3Kγ at 2 nM, incubated for 30 minutes at 25° C.; read-out: γ IC50
reported-endpoint: IC50

CCNC(=O)Nc1cccc(-n2c([C@H](C)Nc3ncnc(N)c3C#N)nc3c(F)cccc3c2=O)c1; > 10 µM

Enquiry: Please give measured IC50 of the following entry: CCNC(=O)Nc1cccc(-n2c([C@@H](Nc3ncnc(N)c3[N+](=O)[O-])[C@@H](C)CC)nc3cccc(Cl)c3c2=O)c1
Return: > 10 µM

Enquiry: Quickly give me recorded IC50 for CCNC(=O)Nc1cccc(-n2c([C@@H](Nc3ncnc(N)c3C#N)[C@@H](C)CC)nc3cccc(Cl)c3c2=O)c1
Return: > 10 µM

---

# measured-on: PI3Kβ (Homo sapiens (Human))
# experimental-details: TR-FRET enzymatic assay of PI3K isoforms (PI3Kβ)
# conditions-used: TR-FRET, 2×Km ATP, 2 μM PIP2, incubated for 30 minutes at 25° C.; read-out: β IC50
reported-endpoint: IC50 (nM)

Take a look at these entries with their results.
CCNC(=O)Nc1cccc(-n2c([C@H](C)Nc3ncnc(N)c3C#N)nc3ccc(F)cc3c2=O)c1; 550
N#Cc1c(N)nc(N)nc1N[C@H](c1nc2c(C#N)cc(F)cc2c(=O)n1-c1cccc(C(N)=O)c1)C1CC1; 25

a = CNC(=O)Nc1cccc(-n2c([C@H](C)Nc3ncnc(N)c3C#N)nc3cccc(Cl)c3c2=O)c1
b = C[C@H](Oc1ncnc2scnc12)c1nc2cccc(Cl)c2c(=O)n1-c1cccc(NC(=O)NCC2OCCO2)c1
c = COCCNC(=O)Nc1cccc(-n2c(C(C)Oc3ncnc4scnc34)nc3cccc(Cl)c3c2=O)c1 (centres unmarked)
Enquiry: List the 3 entries from lowest IC50 to highest IC50 value. Put the labels in the requested order and list them out.
Return: a, b, c
(a: 6 nM, b: 25 nM, c: 60 nM)
